Biological target: T1, Reg1_301-599 (human Regnase-1 amino acids 301 to 599, FLAG tag on the N-terminal side, BirA recognition … (human))
T1 sequence (Q5D1E8 301-599, looked up): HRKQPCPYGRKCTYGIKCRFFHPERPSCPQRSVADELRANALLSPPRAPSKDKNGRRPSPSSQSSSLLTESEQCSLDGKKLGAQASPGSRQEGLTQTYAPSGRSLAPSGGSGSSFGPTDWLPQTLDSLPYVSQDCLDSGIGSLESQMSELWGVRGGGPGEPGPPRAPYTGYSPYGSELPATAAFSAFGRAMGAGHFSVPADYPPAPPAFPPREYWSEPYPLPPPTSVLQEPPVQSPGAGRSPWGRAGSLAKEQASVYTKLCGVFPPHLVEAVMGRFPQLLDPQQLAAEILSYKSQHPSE
Experiment: cell-based or functional assay
Positions of bridges follow the written chain, without caps; N, C: chain ends. Non-standard residues stand in square brackets, D forms with d. No end group written: not given here. NMeA = CN[C@@H](C)C(=O)O; dNMeA = CN[C@H](C)C(=O)O
Measure Name: IC50, phosphorylation by IKKβ (µM)
Numbers only, in µM.

binder="[NMeA]NSWYKIWGLD (lactam N-11) [PP21]" measure_name="IC50, phosphorylation by IKKβ" reported_measurement=37.2
binder="[NMeA]HSNAWYNIWD (lactam N-11) [PP5]" measure_name="IC50, phosphorylation by IKKβ" reported_measurement=31.3
binder="[NMeA]GYANSWYNIWD (lactam N-12) [PP2]" measure_name="IC50, phosphorylation by IKKβ" reported_measurement=18.5

Respectfully, I request IC50, phosphorylation by IKKβ for each entry included below.
1. [NMeA]RFRQWKWVYPD (lactam N-12) [PP13]
2. [NMeA]WIWDFWNED (lactam N-10) [PP24]
3. [NMeA]NFNSAYYRAIWD (lactam N-13) [PP7]
4. [NMeA]DIWFDYWDWD (lactam N-11) [PP17]
5. [NMeA]NSWYINIWGHD (lactam N-12) [PP15]
6. [NMeA]NFSNSWYNIWD (lactam N-12) [PP16]
7. [NMeA]YIWDFFGDLD (lactam N-11) [PP4]

23.2
7.2
3
0.7
22
42.2
12.8

Consider the binder [dNMeA]KHASAWYRIWD (lactam N-12) [PP3] and give its measured IC50, phosphorylation by IKKβ.
6.8
